measured target: HDAC6 human recombinant (Homo sapiens, UniProt Q9UBN7)
procedure text: Inhibition of HDAC6 activity (fluorimetric assay)
settings: test concentrations 0.1, 1, 10, 100 and 1000 nM; 37° C., 60 minutes
pIC50: −log10 of the molar value.
Rule: pIC50 of 8 or more gives label 1; anything lower gives label 0.

Given the entry O=C(NO)c1ccc(Cn2ccc3cc(N4CCC5(CC4)CN(Cc4ccccn4)C5)cnc32)cc1 , answer whether its pIC50 meets or surpasses 8.
label 1

Given the entry C[C@@H]1CN(c2cnc3c(ccn3Cc3ccc(C(=O)NO)cc3)c2)C[C@H](C)N1Cc1cccc(F)c1 , answer whether its pIC50 meets or surpasses 8.
label 0

Given the entry CC(C)(F)C(=O)N1CCC(c2cnc3c(ccn3Cc3ccc(C(=O)NO)cc3)c2)CC1 , answer whether its pIC50 meets or surpasses 8.
label 1

Given the entry COc1ccc(-c2cnc3c(ccn3Cc3ccc(C(=O)NO)cc3)c2)cc1 , answer whether its pIC50 meets or surpasses 8.
label 0

Given the entry O=C(NO)c1ccc(Cn2ccc3cc(-c4ccc(F)cc4)cnc32)cc1 , answer whether its pIC50 meets or surpasses 8.
label 1

---

measured target: HDAC6 human recombinant (Homo sapiens, UniProt Q9UBN7)
procedure text: Inhibition of HDAC6 activity (fluorimetric assay)
settings: test concentrations 0.1, 1, 10, 100 and 1000 nM; 37° C., 60 minutes
parameter: IC50 (nM)
Just the number in nM, nothing appended.

Form field: reported IC50 of CC(C)(C(=O)O)N1CCC(c2ccnc3c2ccn3Cc2ccc(C(=O)NO)cc2)CC1
1.4

Form field: reported IC50 of O=C(NO)c1ccc(Cn2ccc3cc(C4CCN(Cc5cccc(CN6CCOCC6)c5)CC4)cnc32)cc1
6.4

Form field: reported IC50 of CC(C)(C)OC(=O)N1CC=C(c2ccnc3c2ccn3Cc2ccc(C(=O)NO)cc2)CC1
16

Form field: reported IC50 of O=C(NO)c1ccc(Cn2ccc3cc(C4CCN(Cc5ccc(-n6cnnc6)cc5)CC4)cnc32)cc1
18.5

---

Please go through the items and note down their pIC50.
measured target: HDAC6 human recombinant (Homo sapiens)
procedure text: Inhibition of HDAC6 activity (fluorimetric assay)
settings: test concentrations 0.1, 1, 10, 100 and 1000 nM; 37° C., 60 minutes
Interpret pIC50 as the negative base-10 log of the concentration measured in mol/L.

Form field: reported pIC50 of COc1ccc(CN2CCC(c3ccnc4c3ccn4Cc3ccc(C(=O)NO)cc3)CC2)cc1
7.92

Form field: reported pIC50 of CC(C)(C)OC(=O)NC1CCN(c2cnc3c(ccn3Cc3ccc(C(=O)NO)cc3)c2)CC1
7.52

Form field: reported pIC50 of O=C(NO)c1ccc(Cn2ccc3cc(N4CCN(Cc5ccccc5)CC4)cnc32)cc1
8.17

Form field: reported pIC50 of CC(C)(F)C(=O)N1CCC(c2ccnc3c2ccn3Cc2ccc(C(=O)NO)cc2)CC1
8.44

Form field: reported pIC50 of CCC(F)(CC)CN1CCN(c2ccnc3c2ccn3Cc2ccc(C(=O)NO)cc2)CC1
7.04

Form field: reported pIC50 of COc1ccc(CN2CC3(CCN(c4ccnc5c4ccn5Cc4ccc(C(=O)NO)cc4)CC3)C2)cc1
8.48

Form field: reported pIC50 of CC(C)(O)CN1CC2(CCN(c3cnc4c(ccn4Cc4ccc(C(=O)NO)cc4)c3)CC2)C1
8.43

Form field: reported pIC50 of COc1ccc(CN2CCC(c3cnc4c(ccn4Cc4ccc(C(=O)NO)cc4)c3)CC2)cn1
5.28

Form field: reported pIC50 of O=C(NO)c1ccc(Cn2ccc3ccc(C4CCN(Cc5cccnc5)CC4)nc32)cc1
7.47

Form field: reported pIC50 of O=C(NO)c1ccc(Cn2ccc3cc(N4CCN(Cc5cccc(F)c5)CC4)cnc32)cc1
7.90

Form field: reported pIC50 of O=C(NO)c1ccc(Cn2ccc3cc(N4CCN(Cc5ccccc5F)CC4)cnc32)cc1
7.95

Form field: reported pIC50 of CC(C)(O)CN1C2CCC1CN(c1ccnc3c1ccn3Cc1ccc(C(=O)NO)cc1)C2
8.22

Form field: reported pIC50 of CC(C)(C)OC(=O)N1CC=C(c2cnc3c(ccn3Cc3ccc(C(=O)NO)cc3)c2)CC1
8.10

Form field: reported pIC50 of CC(C)(F)CN1CC=C(c2ccnc3c2ccn3Cc2ccc(C(=O)NO)cc2)CC1
8.10

Form field: reported pIC50 of O=C(NO)c1ccc(Cn2ccc3cc(N4CCC5(CCN(Cc6cccnc6)C5)CC4)cnc32)cc1
9.00

Form field: reported pIC50 of CC(C)(C)OC(=O)N1CCN(c2cnc3c(ccn3Cc3ccc(C(=O)NO)cc3)c2)CC1
7.66

---

measured target: HDAC6 human recombinant (Homo sapiens)
procedure text: Inhibition of HDAC6 activity (fluorimetric assay)
settings: test concentrations 0.1, 1, 10, 100 and 1000 nM; 37° C., 60 minutes
parameter: IC50 (nM)
Just the number in nM, nothing appended.

Form field: reported IC50 of O=C(NO)c1ccc(Cn2ccc3cc(C4=CCC(F)(F)CC4)cnc32)cc1
14

Form field: reported IC50 of O=C(NO)c1ccc(Cn2ccc3cc(C4CCNCC4)cnc32)cc1
8

Form field: reported IC50 of CC(CC(=O)O)N1CCC(c2ccnc3c2ccn3Cc2ccc(C(=O)NO)cc2)CC1 (centres unmarked)
8.5

Form field: reported IC50 of O=C(NO)c1ccc(Cn2ccc3c(N4CCN(Cc5cccc(F)c5)CC4)ccnc32)cc1
9.1

Form field: reported IC50 of C[C@@H]1CN(c2cnc3c(ccn3Cc3ccc(C(=O)NO)cc3)c2)C[C@H](C)N1CC(C)(C)O
12

---

measured target: HDAC6 human recombinant (Homo sapiens, UniProt Q9UBN7)
Sequence (Q9UBN7 1-1215): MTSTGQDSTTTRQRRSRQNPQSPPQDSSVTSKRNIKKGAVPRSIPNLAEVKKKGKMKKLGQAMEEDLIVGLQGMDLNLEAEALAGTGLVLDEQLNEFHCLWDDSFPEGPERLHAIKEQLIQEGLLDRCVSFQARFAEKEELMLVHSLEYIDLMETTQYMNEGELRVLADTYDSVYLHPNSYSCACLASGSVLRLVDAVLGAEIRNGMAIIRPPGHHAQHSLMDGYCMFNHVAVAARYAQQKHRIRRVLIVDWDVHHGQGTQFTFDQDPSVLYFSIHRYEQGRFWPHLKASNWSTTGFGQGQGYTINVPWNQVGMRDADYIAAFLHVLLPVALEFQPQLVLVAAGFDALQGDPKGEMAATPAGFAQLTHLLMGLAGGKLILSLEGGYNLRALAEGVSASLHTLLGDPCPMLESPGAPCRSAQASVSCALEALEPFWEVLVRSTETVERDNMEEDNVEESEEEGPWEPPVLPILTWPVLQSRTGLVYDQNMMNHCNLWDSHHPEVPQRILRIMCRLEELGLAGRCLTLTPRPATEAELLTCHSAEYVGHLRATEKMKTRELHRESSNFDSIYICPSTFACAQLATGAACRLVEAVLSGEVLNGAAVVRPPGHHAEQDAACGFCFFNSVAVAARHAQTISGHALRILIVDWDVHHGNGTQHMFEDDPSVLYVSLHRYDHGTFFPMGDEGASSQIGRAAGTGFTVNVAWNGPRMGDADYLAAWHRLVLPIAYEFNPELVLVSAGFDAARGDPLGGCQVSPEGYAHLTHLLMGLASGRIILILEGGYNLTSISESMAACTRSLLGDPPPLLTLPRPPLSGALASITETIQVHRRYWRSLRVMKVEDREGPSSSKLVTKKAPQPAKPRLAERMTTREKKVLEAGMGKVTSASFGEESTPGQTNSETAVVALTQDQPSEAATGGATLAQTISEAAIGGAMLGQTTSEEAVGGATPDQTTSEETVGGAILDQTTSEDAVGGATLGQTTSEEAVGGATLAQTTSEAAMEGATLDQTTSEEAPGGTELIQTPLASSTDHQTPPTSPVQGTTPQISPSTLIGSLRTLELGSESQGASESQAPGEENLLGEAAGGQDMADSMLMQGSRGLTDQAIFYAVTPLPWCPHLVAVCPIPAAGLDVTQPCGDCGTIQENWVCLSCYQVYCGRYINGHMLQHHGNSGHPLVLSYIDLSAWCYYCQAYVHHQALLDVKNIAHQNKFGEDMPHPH
procedure text: Inhibition of HDAC6 activity (fluorimetric assay)
settings: test concentrations 0.1, 1, 10, 100 and 1000 nM; 37° C., 60 minutes
Please go through the items and note down their pIC50.
Interpret pIC50 as the negative base-10 log of the concentration measured in mol/L.

Form field: reported pIC50 of O=C(NO)c1ccc(Cn2ccc3c(N4CCN(C(=O)C5(C(F)(F)F)CCC5)CC4)ccnc32)cc1 [Compound 703]
8.22

Form field: reported pIC50 of CN1CCN(Cc2cccc(CN3CCC(c4cnc5c(ccn5Cc5ccc(C(=O)NO)cc5)c4)CC3)c2)CC1 [Compound 879]
8.12

Form field: reported pIC50 of CN1CCN(Cc2ccc(CN3CCC(c4cnc5c(ccn5Cc5ccc(C(=O)NO)cc5)c4)CC3)cc2)CC1 [Compound 877]
8.06
